Target: T1, human six-transmembrane epithelial antigen of prostate 2 (STEAP2) (human, UniProt Q8NFT2 1-490)
T1 construct: also called hSTEAP2
T1 sequence: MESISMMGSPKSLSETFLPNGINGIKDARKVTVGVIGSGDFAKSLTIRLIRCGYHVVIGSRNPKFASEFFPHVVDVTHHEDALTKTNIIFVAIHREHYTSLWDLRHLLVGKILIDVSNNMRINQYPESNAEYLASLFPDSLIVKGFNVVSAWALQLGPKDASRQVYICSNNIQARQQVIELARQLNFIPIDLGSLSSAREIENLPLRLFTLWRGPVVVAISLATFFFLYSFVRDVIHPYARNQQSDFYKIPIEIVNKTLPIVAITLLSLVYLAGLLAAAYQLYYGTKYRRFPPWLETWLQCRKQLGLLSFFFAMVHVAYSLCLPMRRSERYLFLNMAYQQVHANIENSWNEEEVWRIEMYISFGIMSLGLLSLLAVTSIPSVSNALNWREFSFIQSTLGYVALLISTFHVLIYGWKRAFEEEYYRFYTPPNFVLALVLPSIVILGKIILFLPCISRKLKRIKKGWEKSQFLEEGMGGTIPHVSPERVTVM
Assay: FACS on C4-2 cells (endogenous STEAP2), MFI fold above unstained, average at 100-300 nM antibody
Experimental Endpoint: Avg F.A.B (fold above background)
// units = fold above background; emit number, no label

Some solved cases for reference:
| Binder | Avg F.A.B (fold above background) |
| --- | --- |
| H1H11880P (antibody, human IgG1, V domains shown) VH: EVQLVESGGGLVQPGGSLRLSCAASGFTFSTYAMHWVRQAPGKGLQHVSTISTNGVNTYYADSVKGRFTISRDNSKSTLYLQMGSLRAEDMAVYYCARDKDFWSGYFDYWGQGTLVTVSS VL: EIVMTQSPGTLSVSPGERATLSCRASQSVSSNLAWYHQKPGQAPRLLIYGASTRATGFPARFSGSGSGTEFTLTISSLQSEDFAAYYCQQYNNWPITFGQGTRLEIK | 6 |
| H1H11162N (antibody, human IgG1, V domains shown) VH: QVQLQQSGPGLVKPSQTLSLTCAISGDSVSSNRAAWNWIRQSPSRGLQWLGRTYYRSKWYNDYAVSLRSRITINPVTSKNQVALHMNSVTPEDTAVYYCARAGIVVVPGPETFYYYDHGLDVWGQGTTVTVSS VL: DIQMTQSPSSLSASVGDRVTITCRASQSIRSYLNWYQQKPGKAPELLIHAASSLQSGVPSRFSGSGSGTDFTLTISSLQPEDFASYYCQQSYSAPPITFGQGTRLEIK | 104 |
| H1H7811N (antibody, human IgG1, V domains shown) VH: QVQLVESGGGVVQPGRSLRLSCAVSGFTSSTYGMNWVRQAPGKGLEWVAVISFDGSNKYYADSVKGRFTISRDNSKNTLYLQMSSLRPEDTAVYYCARGRYFDLWGRGTLVTVSS VL: DTQMTQSPSTLSASVGDRVTITCRASQIISSWLAWYQQKPGKAPKLLIYKASSLASGVPSRFSGSGSGTEFTLTISSLQPDDFATYYCQQYKSYSYTFGQGTNLEIK | 65 |

H1H7809N (antibody, human IgG1, V domains shown) VH: QVQLVESGGGVVQPGRSLGLSCAASGFTFSSYGMHWVRQAPGKGLEWVAVIWYDGSNKYYVDSVKGRFTISRDNSKNTLYLQMNSLRAEDTAVYYCAREGLRFLENYYYYYGMDVWGQGTTVTVSS VL: EIVLTQSPGTLSLSPGERATLSCRASQSISSTYLAWYQQRPGQAPRLLIYGASSRATGIPDRFSGSGSGTDFTLTISRLEPEDFAVYYCQQYGTSPYTFGQGTKLEIK has a reported Avg F.A.B (fold above background) of 89

Values compiled from patent US20200376136A1.
